tested on: HCT-15 colon; experiment: NCI tumour cell line growth inhibition, 48 h
Metric: TGI

> print(dat)
                                   compound  target.under.test  readout.value
1  Cc1nc2c3c(ncn2n1)Oc1c(c(-c2ccccc2)nn1-c1ccccc1)C3c1ccc(Cl)cc1 (stereo unspecified)       HCT-15 colon       > 100 µM
2  CCOC(=O)C1(Br)C(c2ccccc2)NC(=O)NC1(C)Br (stereo unspecified)       HCT-15 colon       > 100 µM
3    CCOC(=O)c1c(N2CCCC2)ncn(-c2ccccc2)c1=S       HCT-15 colon       > 100 µM
4  C/C=C\C(CC(=O)NCCc1cn(C(=O)OCc2ccccc2)c2ccccc12)CC(=O)OC (stereo unspecified)       HCT-15 colon       > 100 µM
5  CCCCC1CC(c2cccc([N+](=O)[O-])c2)=NO1 (stereo unspecified)       HCT-15 colon       > 100 µM

Alright, here's another compound for you.
Task: # lookup: TGI of O=C(CCN1CCCC1)Nc1ccc2sc3ccccc3c(=O)c2n1
Output: 16.8 µM

* * *

TGI by entry:
system: SK-MEL-2 melanoma; test: NCI tumour cell line growth inhibition, 48 h
Express it in µM; write the number only.

Please review the following examples before continuing.
> print(dat)
                                   compound  metric  readout.value
1           COc1cc(/C=C\c2ccccc2)cc(OC)c1OC     TGI           26.2
2     Oc1ccc(C(c2ccc(O)cc2)c2ccc(Cl)cn2)cc1     TGI           60.3
3  COC1OC(Cc2nnc(C)o2)C(OCc2ccccc2)C(OCc2ccccc2)C1OCc1ccccc1 (stereo not given)     TGI           29.2

Here is the next item to consider.
Task: Suppose we examine the compound N=c1oc2ccc3ccccc3c2cc1C(N)=O ; what TGI value has been reported?
Output: 49.4

* * *

Listing of recorded TGI by entry.
system: NCI-H460 lung; assay: NCI tumour cell line growth inhibition, 48 h

Solved entries (count: 5):
> print(dat)
                                   compound  metric  readout.value
1    C(=C\c1cccc(/C=C/c2ccccn2)n1)/c1ccccn1     TGI       > 100 µM
2  N=C1N(S(=O)(=O)c2ccccc2)[C@@H](Cc2ccccc2)[C@H](c2ccccc2)C1(c1ccccc1)c1ccccc1     TGI       > 100 µM
3  Cc1ccncc1.F[B-](F)(F)F.[Pt+2].c1ccc(-c2cccc(-c3ccccn3)n2)nc1     TGI        23.3 µM
4            CN(C)/N=C/c1cn(C)c(=O)n(C)c1=O     TGI       > 100 µM
5  CCCNCCCC(NC(C)=O)C(=O)NCc1ccccc1 (stereo unspecified)     TGI       > 100 µM

Task: Name the reported TGI value associated with the compound COc1ccc(Nc2ncc(Br)c(NCCCNC(=O)C3CCC3)n2)cc1
Output: 31.5 µM

Task: Given the compound O=C(Nc1cccs1)c1c(O)[nH]c(=S)[nH]c1=O , what is its reported TGI?
Output: > 100 µM

Task: Which measured TGI value corresponds to COC(=O)[C@H]1[C@@H](C(C)C)O[C@@H](C(C)C)O[C@H]1C(F)(F)F ?
Output: > 100 µM

Task: Can you look up the measured TGI of COc1cc2c(cc1OCCCC(=O)Nc1cc(C(=O)Nc3cc(C(=O)Nc4cc(C(=O)NCCCN(C)C)n(C)n4)n(C)n3)n(C)n1)N=CC1CCCN1C2=O (stereo unspecified) for me?
Output: > 100 µM

Task: Which TGI value is on record for COc1cc(CCN)c2c(c1OC)SSSSS2 ?
Output: 2.11 µM

Task: Returns the measured TGI for the input compound. Input: C/C(=N\O)c1cccc(Nc2cc(-n3ccnn3)c3ccccc3n2)c1
Output: > 100 µM

Task: Dear colleague, I am looking for the recorded TGI of the following compound: CC(C)=CCC/C(C)=C/CC/C(C)=C/Cc1c(O)c2ccccc2oc1=O
Output: > 100 µM

Task: Sample CC1CC#CCOC(=O)CCCC1=O (stereo unspecified) — what was its TGI?
Output: > 100 µM

Task: Give the measured TGI of CN(C)c1ccc([O-])cc1.CN(C)c1ccc([O-])cc1.CN(C)c1ccc([O-])cc1.CN(C)c1ccc([O-])cc1.[Ti+4] .
Output: > 100 µM

Task: Look up TGI for this compound: CCOC(=O)c1c(N2CCCC2)ncn(-c2ccccc2)c1=S
Output: > 100 µM

* * *

Each record here notes measured TGI.
system: OVCAR-8 ovarian; test: NCI tumour cell line growth inhibition, 48 h

Before answering, review these 6 worked examples.
Compound	Metric	Readout value
CCC(=O)O[C@H]1CC[C@H]2[C@@H]3CC[C@H]4CC(=O)[C@H](C)C[C@]4(C)[C@H]3CC[C@]12C	TGI	> 100 µM
COC(=O)C1C(O)CC(c2ccccn2)N(Cc2ccccc2)C1c1ccccn1 (stereo not given)	TGI	> 100 µM
COc1ccc(Nc2ncc(Br)c(NCCCNC(=O)C3CCC3)n2)cc1	TGI	> 100 µM
Cc1ccccc1-n1c(C)nc2c1C(=O)c1ccccc1C2=O	TGI	> 100 µM
Cc1cc(/C=C\c2ccc3ccccc3[n+]2C)c(O)c2ncccc12	TGI	> 100 µM
CCCc1c(CC)c(=N)c2ccccc2n1C	TGI	> 100 µM

Task: Find TGI (OVCAR-8 ovarian) for the entry CN(C)c1ccc([O-])cc1.CN(C)c1ccc([O-])cc1.CN(C)c1ccc([O-])cc1.CN(C)c1ccc([O-])cc1.[Ti+4]
Output: > 100 µM

Task: # get_value(readout= TGI, system= OVCAR-8 ovarian) for CCOC(=O)/C(O)=C/c1cc(OC)cc(=O)o1
Output: > 100 µM

Task: Look up TGI with OVCAR-8 ovarian for this compound: COC1=CC(=O)C2C(C1=O)[C@@H]1c3ccccc3C[C@H]21 (stereo not given in full)
Output: > 100 µM

Task: Entry CCn1c(C(=O)N(C2CC2)C2CC2)cc2c3c(ncn3C)c(Nc3cc(C)n(C)n3)nc21 , system OVCAR-8 ovarian: what TGI was measured?
Output: > 100 µM

Task: Give the reported TGI for CC1OC2=N[C@@H]1C(=O)N[C@@H](C(C)C)C1=N[C@H](C(=O)N[C@@H](C(C)C)C3=N[C@H](C(=O)N[C@@H](C(C)C)C4=N[C@H](C(=O)N[C@H]2C(C)C)C(C)O4)C(C)O3)C(C)O1 (stereo not given in full) (system: OVCAR-8 ovarian).
Output: > 10 µM

Task: Form: Entry = Cc1ccncc1.F[B-](F)(F)F.[Pt+2].c1ccc(-c2cccc(-c3ccccn3)n2)nc1 | System = OVCAR-8 ovarian | TGI = ____
Output: 31 µM

Task: Kindly state the measured TGI obtained for N#CC(C#N)=C1C(C#N)=C(N)NC12OCCO2 with OVCAR-8 ovarian.
Output: > 100 µM

Task: API: value(readout=TGI, system=OVCAR-8 ovarian) for record O=C(O)COc1ccc(O)c2c1C(=O)CCCC2=O
Output: > 100 µM

Task: Identify the measured TGI of COc1cc(/C=C\c2ccccc2)cc(OC)c1OC for OVCAR-8 ovarian.
Output: 46.7 µM

Task: Query TGI on OVCAR-8 ovarian for CN1CCN(c2c(Cl)cc(Cl)c3[nH]c4ccccc4c(=O)c23)CC1
Output: 27.9 µM

Task: Request - read-out TGI | tested on OVCAR-8 ovarian | compound Cc1ccc(-c2cc(-c3ccco3)c(C#N)c(=O)[nH]2)cc1
Output: > 100 µM

Task: Record lookup: for OVCAR-8 ovarian, what TGI belongs to [Cl][Pt+2][Cl].[NH-]C1CCCCC1[NH-] (stereo not given) ?
Output: > 100 µM

Task: Short answer please: TGI, OVCAR-8 ovarian, entry CCCCc1c2c(nc3c1CCc1cc4cc5c(nc4nc1-3)-c1nc3c(c(CCCC)c1CC5)CCCC3)CCCC2
Output: > 100 µM

Task: Hello, I am looking for reported TGI with OVCAR-8 ovarian for CC(=O)NNc1nc(C)c(C(=O)NNC(=O)C(=O)Nc2c(C)cccc2C)s1 . Could you help?
Output: 80.1 µM

* * *

tested on: HCC-2998 colon; assay: NCI tumour cell line growth inhibition, 48 h; in the data active means GI50 below about 0.43 µM; inactive means the rest
API: response.call in y (active), n (inactive)

Examples from the recorded data:
> print(dat)
                           structure.string  target.under.test  class.assignment
1  O=C1c2ccc([N+](=O)[O-])cc2-c2c1c1ccccc1c(=O)n2CCCNCCCNCCCn1c2c(c3ccc([N+](=O)[O-])cc3c1=O)C(=O)c1ccccc1-2     HCC-2998 colon                 n
2  O=C(Nc1ccc(F)cc1)c1ccc(NC2=C(Cl)C(=O)N(Cc3ccccc3)C2=O)cc1     HCC-2998 colon                 n
3     Oc1ccc(C(c2ccc(O)cc2)c2ccc(Cl)cn2)cc1     HCC-2998 colon                 y

Next compound, please.
Task: In this assay, the call recorded for O=Nc1c(-c2c(O)[nH]c3ccc([N+](=O)[O-])cc23)[nH]c2ccc(O)cc12 was what?
Output: n
